melting point values, listed per item

CSc1ccc(C2=NNC(C(=O)OC(C)(C)C)S2)cc1 (stereo not given) :: 71 to 72 °C
N#Cc1ccc2[nH]cc(CCN3C(=O)c4ccccc4C3=O)c2c1 :: 217 to 221 °C
CN1C(=O)C(C(=O)Nc2ccc(Oc3ncc(Cl)cc3Cl)cc2)C(=O)N(C)C1=O :: 234 to 235 °C
CNCC(O)c1cc(OC)c(O)c(OC)c1 (stereo not given) :: 175 °C
O=C1NCN(c2ccc(F)cc2)C12CCN(C1CCC(c3ccc(F)cc3)(c3ccc(F)cc3)CC1)CC2 :: 237 to 240 °C

# input Find the measured melting point of CCc1ccc2c(O)c(CO)cnc2c1 and report it.
# output 180 to 182 °C

# input Find the measured melting point of CCCCc1nc2c(c(C)c(C)n3nnnc23)n1CC(C)(C)NS(C)(=O)=O and report it.
# output 75 to 90 °C

# input Find the measured melting point of Cn1c(C(F)(F)F)cc(=O)n(-c2c(F)cc(Cl)c3cc(CO)oc23)c1=O and report it.
# output 198 to 199 °C

# input Find the measured melting point of CCN(CC)C(=O)c1cc(C(C)(C)C)c(O)c(C(C)(C)C)c1 and report it.
# output 136 to 138 °C

* * *

measured metric: melting point

Cc1ncnc(-c2cc([N+](=O)[O-])c(F)cc2F)c1Cl :: 95 to 97 °C
CC(=O)NCC1CN(c2ccc(N3CCN(c4nnc(C(N)=O)s4)C(F)C3)cc2)C(=O)O1 (stereo unspecified) :: 230 to 232 °C
CC(=O)SCCc1nc[nH]n1 :: 84 to 86 °C
CC1(CNC=O)CC(=O)c2ccccc2O1 (stereo unspecified) :: 96 to 98 °C
COc1ccnc(C(=O)NCCNC(=O)OC(C)(C)C)c1 :: 106 to 107 °C
CCCOc1ccccc1-c1nc2nc(N)ncc2c(=O)[nH]1 :: 261 to 262 °C

# input Find the measured melting point of CC(=O)N1N=C(c2ccc([N+](=O)[O-])cc2)c2cc3c(cc2C=C1C)OCO3 and report it.
# output 205 to 207 °C

# input Find the measured melting point of CCOC(=O)C1=C(COCc2nnc(N)s2)NC(C)=C(C(=O)OC)C1c1cccc(Cl)c1Cl (stereo unspecified) and report it.
# output 194 °C

# input Find the measured melting point of CN(C(=O)COc1nc(F)ns1)c1ccccc1 and report it.
# output 82 °C

# input Find the measured melting point of COc1ccc2c(=O)c(C=O)coc2c1OC(C)=O and report it.
# output 160 to 161 °C

# input Find the measured melting point of NC(=O)Cc1cccc2c(-c3ccccc3)onc12 and report it.
# output 191 to 192 °C

* * *

melting point values, listed per item

Worked cases, answers included:
CS(=O)(=O)Nc1ccc(NC(=O)c2c[nH]c(=S)n2C2CCc3c(F)cc(F)cc3C2)cc1 (stereo not given) :: 225 to 230 °C
C=CCSc1sc(-c2cc[nH]n2)c2c1C(=O)CC(C)(C)C2 :: 164 to 167 °C

# input Find the measured melting point of Cc1ccc(CN2Cc3cncn3CC2=O)cc1 and report it.
# output 105 to 108 °C

# input Find the measured melting point of O=C(Cl)N1CC(Sc2ccc(Cl)cc2)C1 and report it.
# output 47 to 48 °C

# input Find the measured melting point of N#CCOc1nsc2ccc(-n3c(=O)cc(C(F)(F)F)[nH]c3=O)cc12 and report it.
# output 254 to 258 °C

# input Find the measured melting point of Cc1nc(NC(=O)CCc2ccccc2)sc1C(=O)NCc1ccccc1 and report it.
# output 63 to 65 °C

# input Find the measured melting point of CCOC(=O)COc1ccc(SCc2cccc3nc(-c4ccc(C(F)(F)F)cc4)sc23)cc1C and report it.
# output 193 to 196 °C

# input Find the measured melting point of O=C(Cn1c(-c2cc([N+](=O)[O-])cc([N+](=O)[O-])c2)ncc(NC(=O)OCc2ccccc2)c1=O)NC(Cc1ccccc1)C(=O)C(F)(F)F (stereo not given) and report it.
# output 154 to 157 °C

# input Find the measured melting point of CC(=O)c1cc(OCc2ccccc2)cc(NC(=O)C(C)(C)Br)c1O and report it.
# output 88 to 90 °C

# input Find the measured melting point of Cc1cccc(-c2nc3ccccn3c2-c2ccnc(-c3ccc(N4CCOCC4)cc3)c2)n1 and report it.
# output 190 °C
